Ref: paper PMC12822440

target.under.test: thrombin (alpha-thrombin) (UniProt P00734;P00734 315-363;364-622)
method: filter binding; dabigatran covalently attached to the aptamer, occupies the active site; Nitrocellulose filter binding, 32P 5'-labelled aptamer (500 CPM/uL), selection buffer (composition not given), 5 min at room temperature, n = 2

{"binder": "GGTTGGTGTGGTTGGAAAAAAAAAAAA (structured_DNA, 3'-dabigatran conjugate (DAB) through 12-nt dA linker) [HD1-12A-DAB]", "uom": "pM", "Kd": 13.1}
